- ASSAYED_TARGET: Mammalian DNA-PK (Homo sapiens)
- PROTOCOL_SUMMARY: DNA-PK inhibition assay (ELISA of p53 Ser15 phosphorylation of GST-p53N66)
- Assay type: biochemical, Mammalian (isolated from HeLa cell nuclear extract)
ASSAY_ENDPOINT: IC50

Which IC50 value belongs to O=c1cc(N2CCOCC2)oc2c(-c3cccc4c3sc3ccccc34)cccc12 [reference compound] ? 0.01 to 0.012 µM

----------
- ASSAYED_TARGET: Mammalian DNA-PK (Homo sapiens, UniProt P78527)
- PROTOCOL_SUMMARY: DNA-PK inhibition assay (ELISA of p53 Ser15 phosphorylation of GST-p53N66)
- Type: biochemical, Mammalian (isolated from HeLa cell nuclear extract)
- RUN_CONDITIONS: DNA-PK from HeLa nuclear extract; mean value; read-out: mean IC50
ASSAY_ENDPOINT: IC50 (µM)
Answers are plain numbers, in µM.

Please review the entries below; each comes with its answer.
1. O=c1cc(N2CCOCC2)oc2c(-c3ccc(CN4CCCN(CCO)CC4)c4c3sc3ccccc34)cccc12; 0.00386
2. O=c1cc(N2CCOCC2)oc2c(-c3ccc(CN4CCCCCC4)c4c3sc3ccccc34)cccc12; 1.91
3. O=c1cc(N2CCOCC2)oc2c(-c3ccc(CN4CC[C@H](F)C4)c4c3sc3ccccc34)cccc12; 0.438
4. O=c1cc(N2CCOCC2)oc2c(-c3ccc(CNCCN4CCCCC4)c4c3sc3ccccc34)cccc12; 0.0625
5. CC(CN(C)C)NCc1ccc(-c2cccc3c(=O)cc(N4CCOCC4)oc23)c2sc3ccccc3c12 (stereo not shown); 0.032
6. CN(C)C1CCN(Cc2ccc(-c3cccc4c(=O)cc(N5CCOCC5)oc34)c3sc4ccccc4c23)CC1; 0.177
7. CCN(CC)Cc1ccc(-c2cccc3c(=O)cc(N4CCOCC4)oc23)c2sc3ccccc3c12; 1.96
8. O=c1cc(N2CCOCC2)oc2c(-c3ccc(CN4CCC[C@H]4CO)c4c3sc3ccccc34)cccc12; 0.0986

Report IC50 for each item below.
1. CC(=O)N1CCN(Cc2ccc(-c3cccc4c(=O)cc(N5CCOCC5)oc34)c3sc4ccccc4c23)CC1
2. O=c1cc(N2CCOCC2)oc2c(-c3ccc(CN4CCCNCC4)c4c3sc3ccccc34)cccc12
3. CN(C)C1CCN(Cc2ccc(-c3cccc4c(=O)cc(N5CCOCC5)oc34)c3sc4ccccc4c23)C1 (stereo not shown)
4. O=c1cc(N2CCOCC2)oc2c(-c3ccc(CN4CCN(CCO)CC4)c4c3sc3ccccc34)cccc12
5. O=c1cc(N2CCOCC2)oc2c(-c3ccc(CNCc4ccco4)c4c3sc3ccccc34)cccc12
6. O=c1cc(N2CCOCC2)oc2c(-c3ccc(CN4CCOCC4)c4c3sc3ccccc34)cccc12

[0.0779, 0.00667, 0.00121, 0.00139, 0.222, 0.102]

----------
- ASSAYED_TARGET: Mammalian DNA-PK (Homo sapiens)
- PROTOCOL_SUMMARY: DNA-PK inhibition assay (ELISA of p53 Ser15 phosphorylation of GST-p53N66)
- Assay type: biochemical, Mammalian (isolated from HeLa cell nuclear extract)
- RUN_CONDITIONS: DNA-PK from HeLa nuclear extract; mean value; read-out: mean IC50
ASSAY_ENDPOINT: pIC50
Give bare numbers, as −log10 of the molar value.

A selection of reference data follows.
1) CN(C)CC(C)(C)CNCc1ccc(-c2cccc3c(=O)cc(N4CCOCC4)oc23)c2sc3ccccc3c12 [4ay]; 6.91
2) O=c1cc(N2CCOCC2)oc2c(-c3ccc(CNCc4cc[nH]n4)c4c3sc3ccccc34)cccc12 [4be]; 7.04
3) O=c1cc(N2CCOCC2)oc2c(-c3ccc(CN4CCSCC4)c4c3sc3ccccc34)cccc12 [4bz]; 6.59
4) C[C@@H]1CN(Cc2ccc(-c3cccc4c(=O)cc(N5CCOCC5)oc34)c3sc4ccccc4c23)C[C@H](C)O1 [4q]; 7.08

# per-item lookup of pIC50; items listed below
1. O=C(C1CC1)N1CCN(Cc2ccc(-c3cccc4c(=O)cc(N5CCOCC5)oc34)c3sc4ccccc4c23)CC1 [4ag]
2. COc1cccc(N2CCN(Cc3ccc(-c4cccc5c(=O)cc(N6CCOCC6)oc45)c4sc5ccccc5c34)CC2)c1 [4n]

6.60
6.01

List reported pIC50 for each of these compounds:
1. O=c1cc(N2CCOCC2)oc2c(-c3ccc(CN4CCCC(CO)C4)c4c3sc3ccccc34)cccc12 (centres unmarked) [4r]
2. N#CCNCc1ccc(-c2cccc3c(=O)cc(N4CCOCC4)oc23)c2sc3ccccc3c12 [4ar]

1. 6.91
2. 7.53

----------
For each of the molecules below, state its pIC50.
- ASSAYED_TARGET: Mammalian DNA-PK (Homo sapiens)
- PROTOCOL_SUMMARY: DNA-PK inhibition assay (ELISA of p53 Ser15 phosphorylation of GST-p53N66)
- Format: biochemical, Mammalian (isolated from HeLa cell nuclear extract)
- RUN_CONDITIONS: DNA-PK from HeLa nuclear extract; mean value; read-out: mean IC50
One number for each entry, as −log10 of the molar value.

1. O=c1cc(N2CCOCC2)oc2c(-c3ccc(CN4CCCCO4)c4c3sc3ccccc34)cccc12; 5.68

Dear colleague, could you send me pIC50 for each of the items below? Thanks.
1. O=c1cc(N2CCOCC2)oc2c(-c3ccc(CN4CC[C@@H](F)C4)c4c3sc3ccccc34)cccc12
2. N[C@@H]1CCCC[C@@H]1NCc1ccc(-c2cccc3c(=O)cc(N4CCOCC4)oc23)c2sc3ccccc3c12
3. CN(C)Cc1ccc(-c2cccc3c(=O)cc(N4CCOCC4)oc23)c2sc3ccccc3c12
4. CCN1CCN(Cc2ccc(-c3cccc4c(=O)cc(N5CCOCC5)oc34)c3sc4ccccc4c23)CC1
5. C[C@@H]1COCCN1Cc1ccc(-c2cccc3c(=O)cc(N4CCOCC4)oc23)c2sc3ccccc3c12

1: 6.77; 2: 6.94; 3: 6.53; 4: 8.25; 5: 6.04

Quick request: pIC50 for each listed item, please.
1. Cc1cc(NCc2ccc(-c3cccc4c(=O)cc(N5CCOCC5)oc34)c3sc4ccccc4c23)on1
2. O=c1cc(N2CCOCC2)oc2c(-c3ccc(CN4CCCC(C(F)(F)F)C4)c4c3sc3ccccc34)cccc12 (stereo not shown)
3. N#Cc1cccn1NCc1ccc(-c2cccc3c(=O)cc(N4CCOCC4)oc23)c2sc3ccccc3c12
4. O=c1cc(N2CCOCC2)oc2c(-c3ccc(CNCc4cccnc4)c4c3sc3ccccc34)cccc12
5. Cn1cccc1CNCc1ccc(-c2cccc3c(=O)cc(N4CCOCC4)oc23)c2sc3ccccc3c12
6. O=c1cc(N2CCOCC2)oc2c(-c3ccc(CN4CCC(O)CC4)c4c3sc3ccccc34)cccc12
7. CN1CCCC(NCc2ccc(-c3cccc4c(=O)cc(N5CCOCC5)oc34)c3sc4ccccc4c23)C1 (stereo not shown)
8. O=c1cc(N2CCOCC2)oc2c(-c3ccc(CN4CCC[C@@H]4CO)c4c3sc3ccccc34)cccc12

1. 6.52
2. 5.67
3. 6.02
4. 7.01
5. 6.54
6. 6.29
7. 7.79
8. 6.76

Would you mind giving pIC50 for every molecule in the list below?
1. CN(C)C1CCCN(Cc2ccc(-c3cccc4c(=O)cc(N5CCOCC5)oc34)c3sc4ccccc4c23)C1 (stereo not shown)
2. O=c1cc(N2CCOCC2)oc2c(-c3ccc(CN4CCOC(CO)C4)c4c3sc3ccccc34)cccc12 (stereo not shown)

1: 7.70; 2: 7.14

----------
- ASSAYED_TARGET: Mammalian DNA-PK (Homo sapiens, UniProt P78527)
- PROTOCOL_SUMMARY: DNA-PK inhibition assay (ELISA of p53 Ser15 phosphorylation of GST-p53N66)
- Format: biochemical, Mammalian (isolated from HeLa cell nuclear extract)
- RUN_CONDITIONS: DNA-PK from HeLa nuclear extract; mean value; read-out: mean IC50
- Experimental: In order to assess the inhibitory action of the compounds against DNA-PK in vitro, the following assay was used to determine IC50 values. To the assay mix, varying concentrations of inhibitor (in DMSO at a final concentration of 1%) were added. […] (NEN Renaissance) to detect the signal as measured by chemiluminescent counting via a TopCount NXT (Packard). The enzyme activity for each compound is then calculated using the following equation: […]
ASSAY_ENDPOINT: pIC50
One number for each entry, as −log10 of the molar value.

Value sought for every listed compound: pIC50.
1. O=c1cc(N2CCOCC2)oc2c(-c3ccc(CNCCc4ccccc4)c4c3sc3ccccc34)cccc12
2. O=c1cc(N2CCOCC2)oc2c(-c3ccc(CNCCO)c4c3sc3ccccc34)cccc12
3. COCCN1CCN(Cc2ccc(-c3cccc4c(=O)cc(N5CCOCC5)oc34)c3sc4ccccc4c23)CC1
4. O=c1cc(N2CCOCC2)oc2c(-c3ccc(CN4CCCO4)c4c3sc3ccccc34)cccc12
5. COC1CCCN(Cc2ccc(-c3cccc4c(=O)cc(N5CCOCC5)oc34)c3sc4ccccc4c23)C1 (stereo not drawn)

[6.28, 7.65, 8.10, 7.16, 6.63]
